Origin of measurements: PubChem BioAssay AID2546

# Method Description: VP16 counterscreen qHTS for inhibitors of ROR gamma transcriptional activity;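 also: Gal4-VP16 expression switched on by copper sulfate through the metallothionein promoter; nearly all actives have a fitted effect of over 50% in size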; also: potency is read from the fitted curve at half-maximal effect
# Experimental Parameters: Drosophila S2 Gal4-VP16 UAS-luciferase, luminescence, 20 h; series mostly up to 53.6 µM
About 11,000 (3.5%) of roughly 310,000 compounds were called active. Inconclusive results (about 8%) are left out. The entries come from a sample that favours actives as a whole.
Assay Endpoint: Potency

INSERT INTO assay_data (compound, assay_endpoint, readout_value) VALUES
  ('O=S(=O)(ON(c1ccccc1)S(=O)(=O)c1ccccc1)c1ccccc1', 'Potency', 'inactive'),
  ('CN(C)/C=C1\C=C(c2ccccc2)OC1=O', 'Potency', '35.5 µM (active)'),
  ('CC(C)Cc1nnc(NC(=O)CN2C(=O)NC3(CCCCC3)C2=O)s1', 'Potency', 'inactive'),
  ('CCOC(=O)c1ccccc1NS(=O)(=O)c1c(C)nc2sccn2c1=O', 'Potency', 'inactive'),
  ('Cn1cc(/C=C/c2nc3ccccc3c(=O)n2-c2cccc([N+](=O)[O-])c2)c2ccccc21', 'Potency', 'inactive'),
  ('COc1ccc(-n2nc(C(=O)NCC(=O)N3CCCCCC3)c3ccccc3c2=O)cc1Cl', 'Potency', 'inactive'),
  ('COc1ccc(OC)c(NC(=O)c2ccc3c(c2)C(=O)N(c2ccc(OC(C)=O)cc2)C3=O)c1', 'Potency', 'inactive'),
  ('COc1cc(/C=N/NC(=O)Cc2ccccc2)cc(OC)c1OC', 'Potency', 'inactive'),
  ('O=C(c1cccnc1)N1CCN(S(=O)(=O)c2cccs2)CC1', 'Potency', 'inactive'),
  ('CN(C)CCCn1c(=O)n(Cc2ccccc2)c(=O)c2c3c(sc21)CCCCC3', 'Potency', 'inactive'),
  ('O=C(Cn1cnc2ccccc21)Nc1ccccc1-c1ccccc1', 'Potency', 'inactive'),
  ('CC1CCCN(CCCNC(=O)CN2C(=O)COc3ccc(S(=O)(=O)N4CCOCC4)cc32)C1 (stereo not given)', 'Potency', 'inactive'),
  ('COc1cc(C(=O)N2CCN(C3CCC(C)CC3)CC2)cc(OC)c1OC (stereo not given)', 'Potency', 'inactive'),
  ('C=CCNC(=S)NNC(=O)c1ccc(Br)o1', 'Potency', 'inactive'),
  ('O=C(Nc1ccccc1)N1CCN(Cc2ccccc2)CC1', 'Potency', 'inactive'),
  ('CC1CCN(C(=O)CCNC(=O)c2ccccc2)CC1', 'Potency', 'inactive'),
  ('Cc1cccc(C)c1NC(=O)C(Cl)C(=O)c1ccccc1 (stereo not given)', 'Potency', '22.4 µM (active)'),
  ('Cc1cccc(C)c1NC(=O)N1CC(C)OC(C)C1 (stereo not given)', 'Potency', 'inactive'),
  ('COCCN(CCOC)S(=O)(=O)c1ccc(C(=O)Nc2nc3c(s2)CCc2ccccc2-3)cc1', 'Potency', '12.6 µM (active)'),
  ('COC(=O)CN1C(=O)C(C)(C)Oc2ccc(C(=O)Nc3cccc(OC)c3)cc21', 'Potency', 'inactive'),
  ('O=C(N/N=C/c1ccc(O)c2ccccc12)c1cccnc1', 'Potency', 'inactive'),
  ('CN(C)/C=C1/C(=O)Nc2ccccc21', 'Potency', 'inactive'),
  ('COC(=O)C1=CN(c2ccc(F)c(F)c2)C=C(C(=O)OC)C1c1ccc([N+](=O)[O-])cc1', 'Potency', 'inactive'),
  ('CC1=C/C(=N\OS(=O)(=O)c2ccccc2)C=CC1=O', 'Potency', '1.12 µM (active)'),
  ('Cc1ccccc1CNC(=O)CCC(=O)N1Cc2ccccc2Oc2ncccc21', 'Potency', 'inactive'),
  ('CCc1ccc(NC(=O)N2CCc3ccccc3C2)cc1', 'Potency', 'inactive'),
  ('N#C[C@]1(S(=O)(=O)c2ccccc2)C[C@@H]2ON=C(c3cccc(Br)c3)[C@@H]2C1', 'Potency', '11.2 µM (active)'),
  ('Cn1c(Nc2cccc(Cl)c2)nc2ccccc21', 'Potency', 'inactive'),
  ('Cc1ccc(C2=C/C(=C\c3cccnc3)C(=O)O2)cc1', 'Potency', 'inactive'),
  ('CC(CC(=O)N1CCN(c2ccccc2)CC1)c1ccccc1 (stereo not given)', 'Potency', 'inactive');
